# study-target: RSV N-RNA complex (Human respiratory syncytial virus A, UniProt P03418)
# Construct: Full-length N was produced by co-expression with the C-terminal domain of RSV P protein in E. coli BL21(DE3); made in house; host or cells: E. coli BL21(DE3), co-transformed with pET-N and pGEX-P(161–241)
# Sequence (P03418 whole entry, looked up, the tested form may be a part, one chain of several): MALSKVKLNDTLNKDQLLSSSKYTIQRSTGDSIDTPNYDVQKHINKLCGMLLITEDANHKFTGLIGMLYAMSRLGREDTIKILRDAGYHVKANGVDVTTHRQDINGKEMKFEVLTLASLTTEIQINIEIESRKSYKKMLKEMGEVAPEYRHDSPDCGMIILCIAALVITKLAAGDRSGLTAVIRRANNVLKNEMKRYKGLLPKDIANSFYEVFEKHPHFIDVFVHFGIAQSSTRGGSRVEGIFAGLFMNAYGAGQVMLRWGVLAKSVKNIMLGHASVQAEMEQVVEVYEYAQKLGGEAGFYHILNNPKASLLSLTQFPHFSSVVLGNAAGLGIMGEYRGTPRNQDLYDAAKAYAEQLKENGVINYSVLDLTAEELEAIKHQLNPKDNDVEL
# procedure-summary: biochemical
# Format: binding
# test-settings: Kd, BCNn peptides 200 nM, Tris pH 8.0, no salt; single site model
pKd: −log10 of the molar value. Peptide text beside a SMILES is read from it. * marks the point of attachment. X1 = Cc1cc(C)n2c1C=C1C=CC(CCC(=O)*)=[N+]1[B-]2(C#N)C#N
Rule: pKd under 6 gives label 0, otherwise label 1.

Cc1cc(C)n2c1C=C1C=CC(CCC(=O)N[C@@H](CC(=O)O)C(=O)N[C@@H](CC(C)C)C(=O)N[C@@H](CCC(=O)O)C(=O)N[C@@H](CC(C)C)C(=O)N[C@@H](CCC(=O)O)C(=O)N[C@@H](CC(=O)O)C(=O)N[C@@H](Cc3ccccc3)C(=O)O)=[N+]1[B-]2(C#N)C#N [BCN7E, BCN-DLELEDF-OH] (X1-DLELEDF-OH)	label 0

(Q) pKd >= 6 for Cc1cc(C)n2c1C=C1C=CC(CCC(=O)N[C@@H](CCC(=O)O)C(=O)N[C@@H](CC(=O)O)C(=O)N[C@@H](CC(N)=O)C(=O)N[C@@H](CC(=O)O)C(=O)N[C@@H](CC(C)C)C(=O)N[C@@H](CCC(=O)O)C(=O)N[C@@H](CC(C)C)C(=O)N[C@@H](CCC(=O)O)C(=O)N[C@@H](CC(=O)O)C(=O)N[C@@H](Cc3ccccc3)C(=O)O)=[N+]1[B-]2(C#N)C#N [BCN10EE] (X1-EDNDLELEDF-OH) ?
(A) label 1

(Q) pKd >= 6 for Cc1cc(C)n2c1C=C1C=CC(CCC(=O)N[C@@H](CCC(=O)O)C(=O)N[C@@H](CC(C)C)C(=O)N[C@@H](CCC(=O)O)C(=O)N[C@@H](CC(=O)O)C(=O)N[C@@H](Cc3ccccc3)C(=O)O)=[N+]1[B-]2(C#N)C#N [BCN5E, BCN-ELEDF-OH] (X1-ELEDF-OH) ?
(A) label 0

(Q) pKd >= 6 for Cc1cc(C)n2c1C=C1C=CC(CCC(=O)N[C@@H](CC(C)C)C(=O)N[C@@H](CCC(=O)O)C(=O)N[C@@H](CC(C)C)C(=O)N[C@@H](CCC(=O)O)C(=O)N[C@@H](CC(=O)O)C(=O)N[C@@H](Cc3ccccc3)C(=O)O)=[N+]1[B-]2(C#N)C#N [BCN6E, BCN-LELEDF-OH] (X1-LELEDF-OH) ?
(A) label 0

Hey, just so you know, these numbers are from paper PMC9820559.
